Tested on: PDC 899932-113-R3-J6 complex spheroid viability
Test: Anticancer human tumor 899932-113-R3-J6-PDC patient-derived melanoma cell line growth inhibition [RAS]
Conditions: second compound 0.1 µM; first compound 0.1 µM; stronger effect = lower value
RECORDED_ENDPOINT: viability, T/C

Illustrative cases are given below, each with its answer.
MOLECULE	viability, T/C
Nc1ccn(C2OC(CO)C(O)C2(F)F)c(=O)n1 (stereo not given) + C#Cc1c(F)ccc2cc(O)cc(-c3ncc4c(N5CC6CCC(C5)N6)nc(OCC56CCCN5CC(F)C6)nc4c3F)c12	18.9%
CCN1CCN(Cc2ccc(Nc3ncc(F)c(-c4cc(F)c5nc(C)n(C(C)C)c5c4)n3)nc2)CC1 + C=CC(=O)N1CCN(c2nc(OCC3CCCN3C)nc3c(F)c(-c4nc(N)cc(C)c4C(F)(F)F)c(Cl)cc23)C(C)C1	83%
O=C(c1ccc(F)c(F)c1Nc1ccc(I)cc1F)N1CC(O)([C@@H]2CCCCN2)C1 + C#Cc1c(F)ccc2cc(O)cc(-c3ncc4c(N5CC6CCC(C5)N6)nc(OCC56CCCN5CC(F)C6)nc4c3F)c12	3.19%
C[C@@H](NC(=O)c1ncnc(N)c1Cl)c1ncc(C(=O)Nc2cc(C(F)(F)F)c(Cl)cn2)s1 + C#Cc1c(F)ccc2cc(O)cc(-c3ncc4c(N5CC6CCC(C5)N6)nc(OCC56CCCN5CC(F)C6)nc4c3F)c12	133%

For the next question, use this molecule.
Bench note, PDC 899932-113-R3-J6 complex spheroid viability: CC(=O)OC12COC1CC(O)C1(C)C(=O)C(O)C3=C(C)C(OC(=O)C(O)C(NC(=O)OC(C)(C)C)c4ccccc4)CC(O)(C(OC(=O)c4ccccc4)C21)C3(C)C (stereo not given) + C=CC(=O)N1CCN(c2nc(OCC3CCCN3C)nc3c(F)c(-c4nc(N)cc(C)c4C(F)(F)F)c(Cl)cc23)C(C)C1 , viability, T/C reads 37.2%

---

Tested on: PDC 899932-113-R3-J6 complex spheroid viability
Test: Anticancer human tumor 899932-113-R3-J6-PDC cell line growth inhibition [RAS];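 for viability, T/C: spheroids exposed to agents for seven days before readout; 100% = DMSO vehicle control wells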
Details: second compound 0.316 µM; first compound 0.01 µM; stronger effect = lower value
Text: RAS pathway inhibitors in Combinations in Complex Spheroids A high-throughput screen of multi-cell type tumor spheroids was designed to identify active combinations of RAS pathway inhibitors and targeted small molecules. Complex spheroids include a stromal component modeled by human endothelial cells (HUVEC) and fibroblasts modeled by human mesenchymal stem cells (MSCs). […] Compounds. […] If the clinical Cmax for an agent had not been determined, the highest concentration tested was 10 microM. […]
Here, each record is paired with measured viability, T/C data.

MOLECULE	viability, T/C
C=CC(=O)Nc1cc(Nc2nccc(-c3cn(C)c4ccccc34)n2)c(OC)cc1N(C)CCN(C)C + C#Cc1c(F)ccc2cc(O)cc(-c3ncc4c(N5CC6CCC(C5)N6)nc(OCC56CCCN5CC(F)C6)nc4c3F)c12	106%
CC(C)n1nc(-c2ccc3oc(N)nc3c2)c2c(N)ncnc21 + C=CC(=O)N1CCN(c2nc(OCC3CCCN3C)nc3c(F)c(-c4nc(N)cc(C)c4C(F)(F)F)c(Cl)cc23)C(C)C1	104%

Measured viability, T/C of Nc1ccn(C2OC(CO)C(O)C2(F)F)c(=O)n1 (stereo not drawn) + C#Cc1c(F)ccc2cc(O)cc(-c3ncc4c(N5CC6CCC(C5)N6)nc(OCC56CCCN5CC(F)C6)nc4c3F)c12 : 65.1%

---

System: PDC 899932-113-R3-J6 complex spheroid viability
Test: Anticancer human tumor 899932-113-R3-J6-PDC cell line growth inhibition [RAS]; active = viability on the fitted dose curve at most 10% of control; inactive = the rest
Conditions: second compound 0.03 µM; first compound 3.16 µM
Give your call using only these classes: active, inactive

Worked set:
COMPOUND	LABEL
CC(Nc1ccc2c(c1)OCCn1cc(N3C(=O)OCC3C(F)F)nc1-2)C(N)=O (stereo unspecified) + CCn1c(-c2cccnc2C(C)OC)c2c3cc(ccc31)N1CCOC(CC(NC(=O)C(C(C)C)N(C)C(=O)C3(F)CCN(C(=O)C#CC(C)(C)N(C)C)CC3)C(=O)N3CCCC(N3)C(=O)OCC(C)(C)C2)C1	inactive
Cc1nc(N2CCC3(CC2)COC(C)C3N)c(CO)nc1Sc1ccnc(N)c1Cl (stereo unspecified) + CCn1c(-c2cc(N3CCN(C)CC3)cnc2C(C)OC)c2c3cc(ccc31)-c1csc(n1)CC(NC(=O)C1CC1C)C(=O)N1CCCC(N1)C(=O)OCC(C)(C)C2	active
C[C@@H](NC(=O)c1ncnc(N)c1Cl)c1ncc(C(=O)Nc2cc(C(F)(F)F)c(Cl)cn2)s1 + CCn1c(-c2cccnc2C(C)OC)c2c3cc(ccc31)N1CCOC(CC(NC(=O)C(C(C)C)N(C)C(=O)C3(F)CCN(C(=O)C#CC(C)(C)N(C)C)CC3)C(=O)N3CCCC(N3)C(=O)OCC(C)(C)C2)C1	inactive
CC1(O)CCCC1n1c(=O)c(C(F)F)cc2cnc(NC3CCN(S(C)(=O)=O)CC3)nc21 (stereo unspecified) + CCn1c(-c2cc(N3CCN(C)CC3)cnc2C(C)OC)c2c3cc(ccc31)-c1csc(n1)CC(NC(=O)C1CC1C)C(=O)N1CCCC(N1)C(=O)OCC(C)(C)C2	active
CCC(CC)c1cc(NC2CCC(N)C2)n2nccc2n1 (stereo unspecified) + CCn1c(-c2cccnc2C(C)OC)c2c3cc(ccc31)N1CCOC(CC(NC(=O)C(C(C)C)N(C)C(=O)C3(F)CCN(C(=O)C#CC(C)(C)N(C)C)CC3)C(=O)N3CCCC(N3)C(=O)OCC(C)(C)C2)C1	active
CC(=O)OC12COC1CC(O)C1(C)C(=O)C(O)C3=C(C)C(OC(=O)C(O)C(NC(=O)OC(C)(C)C)c4ccccc4)CC(O)(C(OC(=O)c4ccccc4)C21)C3(C)C (stereo unspecified) + CCn1c(-c2cccnc2C(C)OC)c2c3cc(ccc31)N1CCOC(CC(NC(=O)C(C(C)C)N(C)C(=O)C3(F)CCN(C(=O)C#CC(C)(C)N(C)C)CC3)C(=O)N3CCCC(N3)C(=O)OCC(C)(C)C2)C1	inactive
Cc1nc(N2CCC3(CC2)COC(C)C3N)c(CO)nc1Sc1ccnc(N)c1Cl (stereo unspecified) + CCn1c(-c2cccnc2C(C)OC)c2c3cc(ccc31)N1CCOC(CC(NC(=O)C(C(C)C)N(C)C(=O)C3(F)CCN(C(=O)C#CC(C)(C)N(C)C)CC3)C(=O)N3CCCC(N3)C(=O)OCC(C)(C)C2)C1	inactive
NC1c2ccccc2OC12CCN(c1cnc3c(N4CCCc5ncccc54)n[nH]c3n1)CC2 (stereo unspecified) + CCn1c(-c2cc(N3CCN(C)CC3)cnc2C(C)OC)c2c3cc(ccc31)-c1csc(n1)CC(NC(=O)C1CC1C)C(=O)N1CCCC(N1)C(=O)OCC(C)(C)C2	active
C[C@@H](NC(=O)c1ncnc(N)c1Cl)c1ncc(C(=O)Nc2cc(C(F)(F)F)c(Cl)cn2)s1 + CCn1c(-c2cc(N3CCN(C)CC3)cnc2C(C)OC)c2c3cc(ccc31)-c1csc(n1)CC(NC(=O)C1CC1C)C(=O)N1CCCC(N1)C(=O)OCC(C)(C)C2	active
CCC(CC)c1cc(NC2CCC(N)C2)n2nccc2n1 (stereo unspecified) + CCn1c(-c2cc(N3CCN(C)CC3)cnc2C(C)OC)c2c3cc(ccc31)-c1csc(n1)CC(NC(=O)C1CC1C)C(=O)N1CCCC(N1)C(=O)OCC(C)(C)C2	active

Enquiry: Status in this test for CC(C)NCC(C(=O)N1CCN(c2ncnc3c2C(C)CC3O)CC1)c1ccc(Cl)cc1 (stereo unspecified) + CCn1c(-c2cccnc2C(C)OC)c2c3cc(ccc31)N1CCOC(CC(NC(=O)C(C(C)C)N(C)C(=O)C3(F)CCN(C(=O)C#CC(C)(C)N(C)C)CC3)C(=O)N3CCCC(N3)C(=O)OCC(C)(C)C2)C1 ?
Return: inactive

---

Test system: PDC 899932-113-R3-J6 complex spheroid viability
Test: Anticancer human tumor 899932-113-R3-J6-PDC cell line growth inhibition [RAS]
Details: curve of first compound; second compound 0.1 µM
RECORDED_ENDPOINT: IC50

MOLECULE	SYSTEM_TESTED	IC50
CC(C)n1nc(-c2ccc3oc(N)nc3c2)c2c(N)ncnc21 + C#Cc1c(F)ccc2cc(O)cc(-c3ncc4c(N5CC6CCC(C5)N6)nc(OCC56CCCN5CC(F)C6)nc4c3F)c12	PDC 899932-113-R3-J6 complex spheroid viability	> 0.1 µM

Measured IC50 of CC(=O)OC12COC1CC(O)C1(C)C(=O)C(O)C3=C(C)C(OC(=O)C(O)C(NC(=O)OC(C)(C)C)c4ccccc4)CC(O)(C(OC(=O)c4ccccc4)C21)C3(C)C (stereo unspecified) + C#Cc1c(F)ccc2cc(O)cc(-c3ncc4c(N5CC6CCC(C5)N6)nc(OCC56CCCN5CC(F)C6)nc4c3F)c12 : < 0.0316 µM

Measured IC50 of NC1c2ccccc2OC12CCN(c1cnc3c(N4CCCc5ncccc54)n[nH]c3n1)CC2 (stereo unspecified) + C#Cc1c(F)ccc2cc(O)cc(-c3ncc4c(N5CC6CCC(C5)N6)nc(OCC56CCCN5CC(F)C6)nc4c3F)c12 : > 10 µM

Measured IC50 of C[C@@H](NC(=O)c1ncnc(N)c1Cl)c1ncc(C(=O)Nc2cc(C(F)(F)F)c(Cl)cn2)s1 + C#Cc1c(F)ccc2cc(O)cc(-c3ncc4c(N5CC6CCC(C5)N6)nc(OCC56CCCN5CC(F)C6)nc4c3F)c12 : 6.77 µM

Measured IC50 of C=CC(=O)N1CCN(c2nc(OCC3CCCN3C)nc3c(F)c(-c4nc(N)cc(C)c4C(F)(F)F)c(Cl)cc23)C(C)C1 (stereo unspecified) + C#Cc1c(F)ccc2cc(O)cc(-c3ncc4c(N5CC6CCC(C5)N6)nc(OCC56CCCN5CC(F)C6)nc4c3F)c12 : > 1 µM

Measured IC50 of NC1c2ccccc2OC12CCN(c1cnc3c(N4CCCc5ncccc54)n[nH]c3n1)CC2 (stereo unspecified) + C=CC(=O)N1CCN(c2nc(OCC3CCCN3C)nc3c(F)c(-c4nc(N)cc(C)c4C(F)(F)F)c(Cl)cc23)C(C)C1 : > 10 µM
